- Tested on: MCF7 breast
- protocol.description: NCI tumour cell line growth inhibition, 48 h
attribute.measured: TGI (µM)

1. N#Cc1c(NCc2ccccc2)nc(NCc2ccccc2)c(C#N)c1-c1cccc(O)c1 ... 88.4
2. Cc1ccc(/C=C2\CN(Cc3cn(CCNc4ccnc5cc(Cl)ccc45)nn3)C/C(=C\c3ccc(C)cc3)C2=O)cc1 ... 3.46

====

- Test system: MOLT-4 leukemia
- protocol.description: NCI tumour cell line growth inhibition, 48 h
TGI for assorted compounds
attribute.measured: TGI

1) Cc1cccc(O)c(=O)c1 ... > 100 µM
2) C/C(=C\CNc1nc(Cl)nc2nc[nH]c12)CO ... > 100 µM
3) Cc1nc2sc(C(=O)Nc3cccc(Cl)c3C)c(N)c2cc1C(C)O (stereo not given) ... > 42.7 µM
4) C#CCOc1cccc(Nc2ncc3ncn(C4CCN(C(=O)CCl)C4)c3n2)c1 (stereo not given) ... > 62.5 µM
5) COc1cccc2ccc3c(c12)C(=O)OC31CCc2c(C)cccc21 (stereo not given) ... 33.7 µM
6) COc1cc(S(=O)(=O)N/N=C/c2cc(Br)c(O)c(OC)c2)c(OC)cc1NC(C)=O ... > 100 µM
7) CCOC(=O)NC(=O)c1cn(C2OC(CO)C(O)C2O)c(=O)[nH]c1=O (stereo not given) ... > 100 µM
8) COC(=O)/C(=N/O)C(C(=O)OC)C(=O)C(=O)Nc1c(Cl)cc(C)cc1S(=O)(=O)O (stereo not given) ... > 100 µM
9) CC(=O)Nc1ccc(/C=C(\NC(=O)c2ccccc2)C(=O)NNS(=O)(=O)c2ccc(C)cc2)cc1 ... > 100 µM
10) CCN(CC)CCOc1nc2cc(OC)c(OC)cc2c2c1-c1ccc(OC)cc1C2=O ... 17.6 µM

From: PubChem BioAssay (NCI)
